Cited source for all entries: PubChem BioAssay (NCI)

Assay: NCI Yeast Anticancer Drug Screen. Data for the rad50 strain (AID 155);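 also: 0% = growth of vehicle-only cultures of the same strain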
Conditions: S. cerevisiae rad50 strain growth inhibition; at 1.2 µM; stronger effect = higher value
Compounds without any hit were thinned out: in the full panel of roughly 79,000, 15% have a hit.
observationType: growth inhibition (%)
Report the figure in % without appending any unit label.

[[record]]
compound = "CCC(=O)C1=C(O)c2cc(OC)ccc2CC1C(=O)OC (stereo unspecified)"
unitstext = "%"
quantitativeresult = -1

[[record]]
compound = "CCN1CCC(O)(c2ccc(Oc3ccc(C)cc3)cc2)C(C(=O)c2ccc(Oc3ccc(C)cc3)cc2)C1 (stereo unspecified)"
unitstext = "%"
quantitativeresult = -21

[[record]]
compound = "CCN(CC)CCNc1ccc(C)c2sc3ccc(O)cc3c(=O)c12"
unitstext = "%"
quantitativeresult = 72

[[record]]
compound = "Nc1ccc2cc(Br)ccc2c1Br"
unitstext = "%"
quantitativeresult = -2

[[record]]
compound = "NC(N)=NC(N)=Nc1ccccc1 (tested in a mixture with another compound)"
unitstext = "%"
quantitativeresult = 2

[[record]]
compound = "O=C1c2ccccc2-c2ccc(N=Cc3ccccc3)cc21"
unitstext = "%"
quantitativeresult = -14


So what's the measured growth inhibition for this one? c1ccc([P+](CCN2Cc3ccccc3C2)(c2ccccc2)c2ccccc2)cc1
30

So what's the measured growth inhibition for this one? O=C1/C(=C/c2ccc(Cl)c(Cl)c2)CNC/C1=C\c1ccc(Cl)c(Cl)c1
12

So what's the measured growth inhibition for this one? Cc1ccc(C)c(C(=N)c2ccccc2Cc2ccccc2)c1
-1

So what's the measured growth inhibition for this one? COc1cc(NCCCCNCC(C)(C)C)c2ncccc2c1
-5

So what's the measured growth inhibition for this one? COc1ccc(C2CC(C)(N3CCCC3)Oc3cc4c(cc32)OCO4)cc1 (stereo unspecified)
5

So what's the measured growth inhibition for this one? Cc1ccc([N+](=O)[O-])c2c(NCCC[N+](C)(C)[O-])c3ccccc3nc12
4

So what's the measured growth inhibition for this one? C[C@H](CCC1=NC(C)(C)CO1)C1CCC2[C@@H]3C(O)C[C@@H]4CC(O)CC[C@]4(C)C3CC[C@@]21C (stereo partly specified)
-3

====

Test: NCI Yeast Anticancer Drug Screen. Data for the cln2 rad14 strain (AID 165);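 also: 0% = growth equal to vehicle treated cultures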
Conditions: S. cerevisiae cln2 rad14 strain, at 5.0 µM (retest, dose inferred, filed as 0.5), stronger effect = higher value
Compounds without any hit were thinned out: in the full panel of roughly 79,000, 15% have a hit.
observationType: growth inhibition (%)
Report the figure in % without appending any unit label.

Use the examples below as a reference point.
[[record]]
inputsmiles = "CCC(/C=C/c1ccccc1)=N\\Nc1ccc(Cl)cc1"
quantitativeresult = 5

[[record]]
inputsmiles = "O=C(Nc1ccc(Cl)cc1)c1cc2cc(N=Nc3ccccc3Cl)ccc2oc1=O"
quantitativeresult = 12

[[record]]
inputsmiles = "CCCCS/C(=C(/C#N)C(N)=O)c1cc2c([nH]1)CCCC2"
quantitativeresult = 8

[[record]]
inputsmiles = "Cc1cc(O)c(C(C)C)cc1SC#N"
quantitativeresult = 65

[[record]]
inputsmiles = "CN1CCN(C(=O)c2cccc3cccc(C(=O)O)c23)CC1"
quantitativeresult = -10


Pending compound:
So what's the measured growth inhibition for this one? CCCCCCCN(CCCCCCC)CC(=O)c1ccc2cc(Cl)c3ccccc3c2c1
14

====

Listed compounds paired with reported growth inhibition
Experiment: NCI Yeast Anticancer Drug Screen. Data for the mlh1 strain (AID 171);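 also: 0% = growth of vehicle-treated control cultures of the same strain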
Settings: S. cerevisiae mlh1 strain growth inhibition; at 33.0 µM; stronger effect = higher value
This is part of a sample that, as a whole, favours compounds with a hit. Of some 79,000 tested, about 15% had one in any assay. Calls of active or inactive are those of the source. Cut-off read from the data, not from the text of the source: active = growth inhibition above about 70%; inactive = the rest.

Use the examples below as a reference point.
[[record]]
compound = "CC1(C)CC(=O)C(C=NC(=S)C(N)=S)=C(O)C1"
observationtype = "growth inhibition"
result = "6% (inactive)"

[[record]]
compound = "CC1(C)OC(=O)C(=Cc2ccc([N+](=O)[O-])s2)C(=O)O1"
observationtype = "growth inhibition"
result = "38% (inactive)"

[[record]]
compound = "O=C(/C=C/c1ccsc1)c1cccs1"
observationtype = "growth inhibition"
result = "25% (inactive)"

[[record]]
compound = "CC1=C(C)C(=O)C2=C(OCCO2)C1=O"
observationtype = "growth inhibition"
result = "14% (inactive)"

[[record]]
compound = "O=C(NC(N1CCN(c2cc3c(cc2F)c(=O)c(C(=O)O)cn3C2CC2)CC1)(C(F)(F)F)C(F)(F)F)c1ccccc1"
observationtype = "growth inhibition"
result = "11% (inactive)"


So what's the measured growth inhibition for this one? c1ccc(-c2cc(C3CO3)c3ccccc3n2)cc1 (stereo not given)
73% (active)

So what's the measured growth inhibition for this one? CCC[CH2][Ge]([CH2]CCC)([CH2]CCC)[O]C(=O)C(O)c1ccccc1 (stereo not given)
88% (active)

So what's the measured growth inhibition for this one? Cc1c(Cl)c(C)c(Cl)c(O)c1Cl
91% (active)

So what's the measured growth inhibition for this one? CCOC(=O)CC1(C)/C(=N\Nc2ccc([N+](=O)[O-])cc2[N+](=O)[O-])CCC2C1CCC1(C)C(C(C)CCCC(C)C)CCC21 (stereo not given)
-3% (inactive)

So what's the measured growth inhibition for this one? CC(C)OP(=O)(OC(C)C)/C(Cl)=N/Nc1ccc([N+](=O)[O-])cc1
96% (active)

====

Test: NCI Yeast Anticancer Drug Screen. Data for the rad52 strain (AID 147);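 also: 0% = growth of vehicle-treated control cultures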
Conditions: S. cerevisiae rad52 mutant growth inhibition; at 1.2 µM
About 79,000 compounds went through this panel and 15% of them were active in at least one assay; those are over-represented in the sample as a whole. Activity calls are given as the source filed them. No stated cut-off is given here; in the data, active means growth inhibition above about 70%; inactive means the rest.
Select the matching outcome among active, inactive

[[record]]
compound = "O=[N+]([O-])/C=C/c1cc2ccc3ccccc3c2[nH]1"
classlabel = "inactive"

[[record]]
compound = "c1ccc2c(c1)ccn2CCc1c[nH]c2ccccc12"
classlabel = "inactive"

[[record]]
compound = "NC(=S)N1N=C2c3ccccc3CC[C@@H]2[C@@H]1c1ccccc1"
classlabel = "inactive"

[[record]]
compound = "COc1cc(OC)c(CSCC(NC(=O)OCC2c3ccccc3-c3ccccc32)C(=O)O)c(OC)c1 (centres undefined)"
classlabel = "inactive"

[[record]]
compound = "O=c1c2ccccc2nc(-c2cccc([N+](=O)[O-])c2)n1O"
classlabel = "inactive"

[[record]]
compound = "O=C1c2ccccc2C(=O)c2c(O)c(NCCNCCO)cc(O)c21"
classlabel = "inactive"


Given CCCCCCCCN1COCC(COc2ccccc2C)OC1 (centres undefined) , state the outcome it received in this test.
inactive

Given O=C1NC(c2cccc(OCc3ccccc3)c2)Nc2ccccc21 (centres undefined) , state the outcome it received in this test.
inactive

Given Cc1c(C(=O)/C=C/c2ccccc2[N+](=O)[O-])[n+](=O)c2ccccc2n1[O-] , state the outcome it received in this test.
active

====

Experiment: NCI Yeast Anticancer Drug Screen. Data for the bub3 strain (AID 167)
Conditions: S. cerevisiae bub3 mutant strain, at 50.0 µM, stronger effect = higher value
About 79,000 compounds went through this panel and 15% of them were active in at least one assay; those are over-represented in the sample as a whole.
observationType: growth inhibition (%)
Report the figure in % without appending any unit label.

Use the examples below as a reference point.
[[record]]
molecule = "O=C1c2ccccc2N2OC3(N4CCCC4)CCCCC3C12c1ccccc1 (stereo not given)"
unitstext = "%"
quantitativeresult = 79.7

[[record]]
molecule = "c1c[nH]c(CN2CCN(Cc3ncc[nH]3)CC2)n1"
unitstext = "%"
quantitativeresult = 97.8

[[record]]
molecule = "Nc1cc2c(cc1N)-c1ccccc1C2=O"
unitstext = "%"
quantitativeresult = 45.1

[[record]]
molecule = "Cc1cccc2c1C1c3c(C)cccc3C(CC(=O)O)CC1CC2 (stereo not given)"
unitstext = "%"
quantitativeresult = 98.8


So what's the measured growth inhibition for this one? NC(=O)NC1C(c2ccccc2)=C1c1ccccc1
-28.7

====

Listed compounds paired with reported growth inhibition
Experiment: NCI Yeast Anticancer Drug Screen. Data for the mgt1 strain (AID 153)
Conditions: S. cerevisiae mgt1 mutant growth inhibition; at 33.0 µM; stronger effect = higher value
About 79,000 compounds went through this panel and 15% of them were active in at least one assay; those are over-represented in the sample as a whole.
Report the figure in % without appending any unit label.

Use the examples below as a reference point.
[[record]]
compound = "CCOC(=S)SSSC(=S)OCC"
quantitativeresult = 96

[[record]]
compound = "S=C1N(c2ccc(Cl)cc2)C2=C(N=Nc3ccccc3)C(=Nc3ccccc3S2)N1c1ccccn1"
quantitativeresult = 99

[[record]]
compound = "CCCCCCCC/C=C\\CCCCCCCCN"
quantitativeresult = 99

[[record]]
compound = "CCOc1ccc(N)c(S)c1"
quantitativeresult = 71

[[record]]
compound = "O=c1cccccc1[O-].O=c1cccccc1[O-].O=c1cccccc1[O-].[Eu+3]"
quantitativeresult = 97


So what's the measured growth inhibition for this one? Cc1ccc(S(=O)(=O)Nc2cccc3cccnc23)cc1
77

So what's the measured growth inhibition for this one? CCCCCCCSCC1C(=O)C23C(O)C1CCC2C12COC3(O)C(O)C1C(C)(C)CCC2O (stereo unspecified)
96

So what's the measured growth inhibition for this one? O=C1C[C@H]2[C@H](c3ccc(Br)cc3)[C@H]3C(=O)c4ccccc4NC(=O)[C@@H]3[C@@]2(O)c2ccccc2N1
45

So what's the measured growth inhibition for this one? O=C(C#Cc1ccccc1)/C=C/c1ccccc1
28

So what's the measured growth inhibition for this one? CCOC(=O)/C(=C\c1ccc(F)cc1)C(C)=O
96

So what's the measured growth inhibition for this one? CC(=O)N1C=Cc2c(c(C)c3c([nH]c4ccccc43)c2C)C1
96
